Test system: SNB-19 CNS
assay procedure: NCI tumour cell line growth inhibition, 48 h
I would appreciate it if you labelled entries Satisfied when TGI is 40 µM or higher, otherwise Not satisfied.

Given Cc1c2ccncc2c(C)c2c1[nH]c1ccc(Oc3ccccc3)cc12 , state whether its TGI is at least 40 µM.
Satisfied

Given CS(=O)(=O)c1ccc2nc(-c3ccc(O)cc3)sc2c1 , state whether its TGI is at least 40 µM.
Not satisfied

Given COc1c(C(C)(C)C)cc(CC2C(=O)C=CC2=O)cc1C(C)(C)C , state whether its TGI is at least 40 µM.
Not satisfied

Given CC1(C)C(=O)C(C)(C)C1=NNC(N)=S , state whether its TGI is at least 40 µM.
Satisfied

Given O=C(Nc1ccc(Cl)cc1C(=O)O)c1ccc([N+](=O)[O-])cc1 , state whether its TGI is at least 40 µM.
Satisfied

Given COc1ccc(-c2cc(-c3ccc(Cl)cc3)nc(NCCCCNc3ccnc4cc(Cl)ccc34)n2)cc1 , state whether its TGI is at least 40 µM.
Not satisfied

Given CCCCCCCCCCNCCSS(=O)(=O)O , state whether its TGI is at least 40 µM.
Not satisfied

Given O=C(Nc1cc(F)c(F)cc1C(=O)O)c1ccc(-n2ccnc2)nn1 , state whether its TGI is at least 40 µM.
Satisfied

Given CCS(=O)c1c2cc(OC)ccc2nc2ccc(OC)cc12 (stereo unspecified) , state whether its TGI is at least 40 µM.
Satisfied

Given COc1ccccc1/C=C1\S/C(=N/Nc2nc(C)c(C(C)=O)s2)NC1=O , state whether its TGI is at least 40 µM.
Satisfied
